Here's a batch of compounds along with measured pKi for Alpha-2A adrenergic receptor (Homo sapiens, UniProt P08913).
Would you please state pKi, meaning minus log10 of the concentration in mol/L, as a bare number?

Examples from the recorded data:
CC1=C(C(=O)O)C(c2ccc3c(c2)OCO3)C(C(=O)NCCCN2CCC(c3ccccc3)(c3ccccc3)CC2)=C(C)N1 (stereo not given) ... 5.93
CCC1=C(C(N)=O)C(c2ccc([N+](=O)[O-])cc2)C(C(=O)NCCCN2CCC(c3ccccc3)(c3ccccc3)CC2)=C(CC)N1 (stereo not given) ... 6.45
CC(=O)C1=C(C)NC(C)=C(C(=O)NCCCN2CCC(c3ccccc3)(c3ccccc3)CC2)C1c1ccc2c(c1)OCO2 (stereo not given) ... 6.02
CO/C(O)=C1\C(C)=NC(C)=C(C(=O)NCCCN2CCC(c3ccccc3)(c3ccccc3)CC2)C1c1ccc2c(c1)OCO2 (stereo not given) ... 5.95
CC1=C(C#N)C(c2ccc([N+](=O)[O-])cc2)C(C(=O)NCCCN2CCC(c3ccccc3)(c3ccccc3)CC2)=C(C)N1 (stereo not given) ... 6.20
CO/C(O)=C1\C(C)=NC(C)=C(C(=O)NCCCN2CCC(c3ccccc3)(c3ccccc3)CC2)C1c1ccc(C#N)cc1 (stereo not given) ... 6.12
CO/C(O)=C1\C(C)=NC(C)=C(C(=O)NCCCN2CCC(c3ccccc3)(c3ccccc3)CC2)C1c1ccc([N+](=O)[O-])c(OC)c1 (stereo not given) ... 6.20
CO/C(O)=C1\C(C)=NC(C)=C(C(=O)NCCCN2CCC(c3ccccc3)(c3ccccc3)CC2)C1c1ccc(OC)cc1 (stereo not given) ... 5.66
CO/C(O)=C1\C(C)=NC(C)=C(C(=O)NCCCCN2CCC(c3ccccc3)(c3ccccc3)CC2)C1c1ccc([N+](=O)[O-])cc1 (stereo not given) ... 6.19

Next, consider the following compound.
Inquiry: Report pKi for CC1=C(C(N)=O)C(c2ccc3c(c2)OCO3)C(C(=O)NCCCN2CCC(c3ccccc3)(c3ccccc3)CC2)=C(C)N1 (stereo not given) tested on Alpha-2A adrenergic receptor (Homo sapiens, UniProt P08913).
Sequence (P08913 whole entry): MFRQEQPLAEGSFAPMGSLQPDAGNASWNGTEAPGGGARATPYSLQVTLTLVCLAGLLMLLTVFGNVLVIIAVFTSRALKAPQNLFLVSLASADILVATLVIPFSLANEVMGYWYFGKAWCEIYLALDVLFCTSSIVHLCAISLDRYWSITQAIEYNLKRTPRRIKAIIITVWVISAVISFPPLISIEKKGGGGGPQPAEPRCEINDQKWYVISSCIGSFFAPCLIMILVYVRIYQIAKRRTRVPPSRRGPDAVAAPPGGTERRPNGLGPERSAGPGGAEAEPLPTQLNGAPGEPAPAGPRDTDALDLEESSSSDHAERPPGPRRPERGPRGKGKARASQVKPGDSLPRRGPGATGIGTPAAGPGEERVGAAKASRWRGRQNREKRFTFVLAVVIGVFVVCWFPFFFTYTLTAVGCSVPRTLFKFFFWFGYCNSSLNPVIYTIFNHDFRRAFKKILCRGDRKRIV
Reply text: 6.30

src = ChEMBL document CHEMBL1131023
